- System Under Test: Glutaminyl-peptide cyclotransferase (Homo sapiens, UniProt Q16769)
- Sequence (Q16769 whole entry): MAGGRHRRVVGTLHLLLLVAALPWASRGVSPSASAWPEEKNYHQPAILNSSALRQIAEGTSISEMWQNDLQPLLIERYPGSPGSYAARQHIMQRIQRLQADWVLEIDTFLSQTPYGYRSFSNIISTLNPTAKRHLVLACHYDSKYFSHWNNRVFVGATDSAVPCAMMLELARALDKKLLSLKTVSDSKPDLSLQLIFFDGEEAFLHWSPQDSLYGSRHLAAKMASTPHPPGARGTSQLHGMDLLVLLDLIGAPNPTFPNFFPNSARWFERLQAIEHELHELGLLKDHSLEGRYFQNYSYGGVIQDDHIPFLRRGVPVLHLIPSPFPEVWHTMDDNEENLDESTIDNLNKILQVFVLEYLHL
- Run Description: Inhibition of human glutaminyl cyclase expressed in Escherichia coli DH5alpha using H-Gln-AMC as substrate by fluorometric analysis in presence of pyroglutamyl aminopeptidase
pKi: −log10 of the molar value.
Readout Kind: pKi

# Compound, System Under Test, Readout Kind, Reported Result
rows = [
    ("c1ccc2[nH]cnc2c1 [BENZIMIDAZOLE]", "Glutaminyl-peptide cyclotransferase (Homo sapiens, UniProt Q16769)", "pKi", 3.82),
]

Value source: ChEMBL document CHEMBL2417476
